target: purified human HDAC6 (Homo sapiens, UniProt Q9UBN7); construct: purchased BPS Bioscience 5006; assay: HDAC6 Enzyme Assay; format: biochemical; conditions: HDAC6 inhibition at a compound concentration of 0.412 μM; read-out: Percent Inhibition at 0.412 μM
Sequence (Q9UBN7 whole entry): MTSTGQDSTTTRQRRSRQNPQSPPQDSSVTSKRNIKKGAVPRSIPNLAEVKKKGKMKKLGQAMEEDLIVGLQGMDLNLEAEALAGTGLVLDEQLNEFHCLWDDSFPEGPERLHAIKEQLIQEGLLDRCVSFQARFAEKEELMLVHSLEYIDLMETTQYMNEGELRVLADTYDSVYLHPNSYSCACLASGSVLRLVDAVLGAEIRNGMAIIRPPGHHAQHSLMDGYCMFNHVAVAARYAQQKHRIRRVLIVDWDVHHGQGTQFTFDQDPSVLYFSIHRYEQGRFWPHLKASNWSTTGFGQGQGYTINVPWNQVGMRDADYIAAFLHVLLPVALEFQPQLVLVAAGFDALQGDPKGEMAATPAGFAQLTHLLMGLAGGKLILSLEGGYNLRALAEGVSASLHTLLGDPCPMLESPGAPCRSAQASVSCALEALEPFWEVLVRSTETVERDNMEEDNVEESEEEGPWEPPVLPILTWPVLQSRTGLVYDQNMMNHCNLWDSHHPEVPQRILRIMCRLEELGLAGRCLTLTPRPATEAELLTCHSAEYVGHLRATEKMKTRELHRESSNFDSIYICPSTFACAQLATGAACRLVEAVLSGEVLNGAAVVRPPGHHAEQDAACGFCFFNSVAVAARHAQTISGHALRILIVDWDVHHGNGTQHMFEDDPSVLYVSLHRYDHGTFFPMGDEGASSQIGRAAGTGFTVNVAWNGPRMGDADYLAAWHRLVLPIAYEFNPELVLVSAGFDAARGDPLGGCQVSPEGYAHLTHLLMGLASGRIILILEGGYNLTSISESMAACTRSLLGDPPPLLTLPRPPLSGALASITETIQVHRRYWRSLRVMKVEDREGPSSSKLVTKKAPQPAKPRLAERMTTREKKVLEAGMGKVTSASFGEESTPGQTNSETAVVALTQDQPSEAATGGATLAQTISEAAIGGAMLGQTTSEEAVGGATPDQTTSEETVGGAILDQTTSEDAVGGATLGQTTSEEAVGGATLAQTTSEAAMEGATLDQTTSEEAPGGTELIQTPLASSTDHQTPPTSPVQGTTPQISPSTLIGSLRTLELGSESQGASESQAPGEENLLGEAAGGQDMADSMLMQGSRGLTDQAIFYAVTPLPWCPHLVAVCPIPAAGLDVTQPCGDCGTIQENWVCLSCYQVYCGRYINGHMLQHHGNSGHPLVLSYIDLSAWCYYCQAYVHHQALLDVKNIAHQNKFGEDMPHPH
Measure: inhibition at 0.412 µM (%)

molecule="COc1ccc(C(=O)NC2CCc3ccc(C(=O)NO)cc3C2)cc1 (centres unmarked)" recorded_number=92
molecule="O=C(NO)c1ccc2c(c1)CCC(NC(=O)c1csc3ccccc13)C2 (centres unmarked)" recorded_number=80
molecule="Cc1cc(C(=O)NC2CCc3cc(C(=O)NO)ccc3C2)c(C)o1 (centres unmarked)" recorded_number=70
molecule="CCN1CCC(NC(=O)c2cc(OC3CCc4cc(C(=O)NO)ccc4C3)ccn2)CC1 (centres unmarked)" recorded_number=95
molecule="Cc1nc(-c2ccccn2)sc1C(=O)N1C2CCC1c1cc(C(=O)NO)ccc12 (centres unmarked)" recorded_number=18
